# Measurement Notes: Approximate solubility estimation in 24 solvents
# Format: physicochemical
# Condition Notes: organic solvent or mixture, thermodynamic from solid; Benzene, RT
Experimental Readout: solubility

Record CCN(C(=O)c1cc(F)ccc1Oc1cncnc1N1CC2(CCN(C[C@H]3CC[C@H](NS(=O)(=O)CC)CC3)CC2)C1)C(C)C [Compound A monocitrate monohydrate] . Reported solubility: < 2.9 mg/mL

###

# Measurement Notes: Pharmacokinetics in patients with relapsed or refractory acute leukemia
# Type: in vivo, human
# Condition Notes: human, plasma, oral; 163 mg twice daily with strong CYP3A4 inhibitors; read-out: Tmax Median
Experimental Readout: Tmax (h)
Please state the figure in h; there is no need to write the unit.

Item: CCN(C(=O)c1cc(F)ccc1Oc1cncnc1N1CC2(CCN(C[C@H]3CC[C@H](NS(=O)(=O)CC)CC3)CC2)C1)C(C)C [Compound A] | Tmax: 2

The values you see were collected from patent US20250170132A1.
